Data provenance: the supplement of paper PMC11451515

Catalogue of AUC of viability dose-response curve values
# Tested on: SEM cells
# Experiment: AUC of viability dose-response curve (% viability x log10 dose units); higher = less sensitive
# Measurement parameters: RPMI 5 mM glucose + 10% dialyzed FBS; 48 h
Metric: AUC of viability dose-response curve

compound=CN(C)c1ccc(-c2nc3c(N4CCN(CC(=O)Nc5nccs5)CC4)c(Cl)cnc3[nH]2)cc1 tgt="SEM cells" recorded_value=421
compound=O=c1oc2cc(O)ccc2s1 tgt="SEM cells" recorded_value=453
compound=O=C(Nc1ccccc1)Nc1ccc(-c2ccc(C(=O)[C@@H]3CCC[C@H]3C(=O)O)cc2)cc1 tgt="SEM cells" recorded_value=468
compound=CC[C@H](C)C(=O)O[C@H]1C[C@@H](C)\C=C2\C=C/[C@H](C)[C@H](CC[C@@H]3C[C@@H](O)CC(=O)O3)[C@@H]12 tgt="SEM cells" recorded_value=408
compound=CC(C)CC(=O)Nc1n[nH]c2c1CN(C(=O)C1CCN(C)CC1)C2(C)C tgt="SEM cells" recorded_value=338
compound=CCOc1ccccc1N/N=C1/C(=O)N(c2nc(-c3ccccc3)cs2)N=C1C tgt="SEM cells" recorded_value=358
compound=c1coc(CNc2ncnc3nc[nH]c23)c1 tgt="SEM cells" recorded_value=473
compound="CCN(CC)CCCC(C)Nc1ccnc2cc(Cl)ccc12 (centres undefined)" tgt="SEM cells" recorded_value=468
compound=CO[C@H]1C[C@@H]2CC[C@@H](C)[C@@](O)(O2)C(=O)C(=O)N2CCCC[C@H]2C(=O)O[C@H]([C@@H](C)C[C@@H]2CC[C@@H](O)[C@H](OC)C2)CC(=O)[C@H](C)/C=C(\C)[C@@H](O)[C@@H](OC)C(=O)[C@H](C)C[C@H](C)/C=C/C=C/C=C/1C tgt="SEM cells" recorded_value=409
compound=Cc1ccc(C(=O)Nc2ccc([S+](=O)([O-])O)c3cc([S+](=O)([O-])O)cc([S+](=O)([O-])O)c23)cc1NC(=O)c1cccc(NC(=O)Nc2cccc(C(=O)Nc3cc(C(=O)Nc4ccc([S+](=O)([O-])O)c5cc([S+](=O)([O-])O)cc([S+](=O)([O-])O)c45)ccc3C)c2)c1 tgt="SEM cells" recorded_value=373
compound=COc1cc2cc(c1Cl)N(C)C(=O)C[C@H](OC(=O)C(C)C)[C@]1(C)O[C@@H]1[C@H](C)[C@@H]1C[C@@](O)(NC(=O)O1)[C@H](OC)/C=C/C=C(\C)C2 tgt="SEM cells" recorded_value=49.3
compound=O=C(Nc1nc2cccc(-c3ccc(CN4CC[S+](=O)([O-])CC4)cc3)n2n1)C1CC1 tgt="SEM cells" recorded_value=432
compound=CC1=CC/2=C(C=C1C)N(C[C@@H](O)[C@@H](O)[C@@H](O)CO)C/3=N/C(=O)NC(=O)C3=N2 tgt="SEM cells" recorded_value=474
compound=Cc1nnc(C(C)C)n1[C@@H]1C[C@H]2CC[C@@H](C1)N2CC[C@H](NC(=O)C1CCC(F)(F)CC1)c1ccccc1 tgt="SEM cells" recorded_value=419

###

Catalogue of cell viability values
# Tested on: SEM cells
# Experiment: cell viability relative to DMSO control; higher = less cytotoxic
# Measurement parameters: RPMI 5 mM glucose + 10% FBS; 48 h; 0.0211 µM
Metric: cell viability (%)

given_smiles=CCC(=O)N1CCN(CC1)C2=C(C=C(C=C2)N3C(=O)\C=C/C4=C3C5=CC(=CC=C5N=C4)C6=CN=C7C=CC=CC7=C6)C(F)(F)F unit_text=% recorded_value=80.6
given_smiles=CC1(C)CCC(C)(C)c2cc(NC(=O)c3ccc(C(=O)O)cc3)ccc21 unit_text=% recorded_value=115
given_smiles=COc1cc(C[C@@H](CO)[C@H](CO)Cc2ccc(O)c(OC)c2)ccc1O unit_text=% recorded_value=81.8
given_smiles=c1cc2c(cc1[C@H]1OC[C@H]3[C@@H]1CO[C@@H]3c1ccc3c(c1)OCO3)OCO2 unit_text=% recorded_value=129
given_smiles=COCC(=O)NC/C=C/c1ccc2ncnc(Nc3ccc(Oc4ccc(C)nc4)c(C)c3)c2c1 unit_text=% recorded_value=95.2
given_smiles=COc1ccc(-n2c(C)c([N+](=O)[O-])c3ccc(O)cc32)cc1 unit_text=% recorded_value=107
given_smiles=CC1(C)[C@@H](O)CC[C@@]2(C)[C@H]1CC[C@]3(C)[C@@H]2C(=O)\C=C/4[C@@H]5C[C@](C)(CC[C@]5(C)CC[C@@]34C)C(O)=O unit_text=% recorded_value=108
given_smiles=O=C1c2ccccc2-c2n[nH]c3cccc1c23 unit_text=% recorded_value=103
given_smiles=Cc1n[nH]c2ccc(-c3cncc(OC[C@@H](N)Cc4ccccc4)c3)cc12 unit_text=% recorded_value=110
given_smiles=C[C@H](NC(=O)[C@@H](O)c1cc(F)cc(F)c1)C(=O)N[C@@H]1C(=O)N(C)c2ccccc2-c2ccccc21 unit_text=% recorded_value=135
